System: human APOE RNA
Assay: Potency (dose response, ED50) in APOE C57BL/6NTac-Apoeem7250 knock-in mice, 4 weeks (Example 14)
Assay type: in vivo
Conditions: cortex, ICV dose 100 μg
Strand notation (5' to 3'): a small letter for the sugar, then the base; units joined by * are phosphorothioate-linked, units joined directly phosphodiester-linked; [ ] holds rarer units or linkages, { } end groups; capitals alone tell only the bases. [ms] = mesyl phosphoramidate linkage; e = 2'-O-(2-methoxyethyl) (MOE); k = constrained ethyl (cEt); [5mC] = 5-methylcytosine; d = 2'-deoxy (DNA)
Hi there, I'd appreciate the recorded APOE RNA (% control) Cortex for every entry that follows.
Respond numerically; units are % control and should not be typed.

# input Enter APOE RNA (% control) Cortex (test system human APOE RNA) for 1778130: modified oligonucleotide complementary to human APOE RNA (eA*e[5mC]eTeTeG*kG*dT*dG[ms]dA[ms]dA*dT*d[5mC]*dT*dT*dT*dA[ms]kTkT*eA*eA; antisense) [compound 1778130]
# output 69

# input System human APOE RNA. Read-out APOE RNA (% control) Cortex. Item 1785598: modified oligonucleotide complementary to human APOE RNA (k[5mC]*kT*kT*dG[ms]dG[ms]dT[ms]dG[ms]dA[ms]dA[ms]dT*d[5mC]*dT*dT*dT*dA*dT[ms]kT*kA*dA[ms]kA; antisense) [compound 1785598] . Report value.
# output 60

# input Identify measured APOE RNA (% control) Cortex obtained with human APOE RNA for Aes^mCeoTeoTesGesGksTdsGdzAdzAdzTds^mCdsTdsTdsTdsAdzTksTksAesAe (eA*e[5mC]eTeT*eG*kG*dT*dG[ms]dA[ms]dA[ms]dT*d[5mC]*dT*dT*dT*dA[ms]kT*kT*eA*eA) [Compound No. 1757576] .
# output 63

# input Provide APOE RNA (% control) Cortex, tested on human APOE RNA, for 1757575 (eA*e[5mC]eTeT*kG*kG*dT*dG[ms]dA[ms]dA[ms]dT*d[5mC]*dT*dT*dT*dA[ms]kT*eT*eA*eA; antisense) [Compound 1757575] .
# output 88

----------
Tested on: human APOE RNA
Assay: Dose-dependent inhibition of human APOE RNA in HepG2 cells, electroporation, 50,000 cells per well, RT-PCR normalized to GAPDH (Example 4, Tables 8-10)
Type: cell-based
Settings: HepG2 cells, electroporation, 24-hour treatment, 3,200 nM, Table 8
Strand notation (5' to 3'): a small letter for the sugar, then the base; units joined by * are phosphorothioate-linked, units joined directly phosphodiester-linked; [ ] holds rarer units or linkages, { } end groups; capitals alone tell only the bases. [ms] = mesyl phosphoramidate linkage; e = 2'-O-(2-methoxyethyl) (MOE); k = constrained ethyl (cEt); [5mC] = 5-methylcytosine; d = 2'-deoxy (DNA)
measured.attribute: APOE RNA (% UTC) 3,200 nM
The answer is to be given in % UTC; state only the numeric part.

# input # return recorded APOE RNA (% UTC) 3,200 nM for entry 1778130: modified oligonucleotide complementary to human APOE RNA (eA*e[5mC]eTeTeG*kG*dT*dG[ms]dA[ms]dA*dT*d[5mC]*dT*dT*dT*dA[ms]kTkT*eA*eA; antisense) [compound 1778130]
# output 19

# input Read the entry 1778115: modified oligonucleotide complementary to human APOE RNA (eA*e[5mC]eTeTkGkG*dT*dG[ms]dA[ms]dA*dT*d[5mC]*dT*dT*dT*dA[ms]eTeT*eA*eA; antisense) [compound 1778115] and write its reported APOE RNA (% UTC) 3,200 nM.
# output 29

# input Indicate the recorded APOE RNA (% UTC) 3,200 nM value for this substance: 1778127: modified oligonucleotide complementary to human APOE RNA (eA*e[5mC]eTeTkGkG*dT*dG[ms]dA[ms]dA*dT*d[5mC]*dT*dT*dT*dA[ms]kTeT[ms]eA[ms]eA; antisense) [compound 1778127]
# output 16

# input Note down APOE RNA (% UTC) 3,200 nM recorded for 1785598: modified oligonucleotide complementary to human APOE RNA (k[5mC]*kT*kT*dG[ms]dG[ms]dT[ms]dG[ms]dA[ms]dA[ms]dT*d[5mC]*dT*dT*dT*dA*dT[ms]kT*kA*dA[ms]kA; antisense) [compound 1785598]
# output 21

# input Give APOE RNA (% UTC) 3,200 nM for the following substance: 1778129: modified oligonucleotide complementary to human APOE RNA (eA*e[5mC]eTeTeG*kG*dT*dG[ms]dA[ms]dA*dT*d[5mC]*dT*dT*dT*dA[ms]kT*kT*eA*eA; antisense) [compound 1778129]
# output 9

# input Query APOE RNA (% UTC) 3,200 nM for 1785601: modified oligonucleotide complementary to human APOE RNA (k[5mC]*kT*kT*dG[ms]dG[ms]dT[ms]dG*dA[ms]dA[ms]dT*d[5mC]*dT*dT*dT*dA[ms]dT*kT*kA*dA[ms]kA; antisense) [compound 1785601]
# output 15

----------
Tested on: human APOE RNA
Experiment: Activity in APOE C57BL/6NTac-Apoeem7250 knock-in mice, single ICV bolus, 16 weeks (Example 12)
Assay type: in vivo
Conditions: cortex; single ICV bolus 300 μg; 16 weeks post treatment; normalized to mouse Ppia
Strand notation (5' to 3'): a small letter for the sugar, then the base; units joined by * are phosphorothioate-linked, units joined directly phosphodiester-linked; [ ] holds rarer units or linkages, { } end groups; capitals alone tell only the bases. [ms] = mesyl phosphoramidate linkage; e = 2'-O-(2-methoxyethyl) (MOE); k = constrained ethyl (cEt); [5mC] = 5-methylcytosine; d = 2'-deoxy (DNA)
measured.attribute: APOE RNA (% control) Cortex
Report only the number, with the unit % control understood.

# input Quickly give me recorded APOE RNA (% control) Cortex for 1681020: 5-10-5 MOE gapmer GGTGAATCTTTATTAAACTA, linkages zsssszsssszzszssssz (antisense eG[ms]eG*eT*eG*eA*dA[ms]dT*d[5mC]*dT*dT*dT[ms]dA[ms]dT*dT[ms]dA*eA*eA*e[5mC]*eT[ms]eA) [compound 1681020]
# output 92

# input Provide APOE RNA (% control) Cortex value for the following substance: 1778127: modified oligonucleotide complementary to human APOE RNA (eA*e[5mC]eTeTkGkG*dT*dG[ms]dA[ms]dA*dT*d[5mC]*dT*dT*dT*dA[ms]kTeT[ms]eA[ms]eA; antisense) [compound 1778127]
# output 48

# input Give APOE RNA (% control) Cortex for the following substance: 1693049: 5-10-5 MOE gapmer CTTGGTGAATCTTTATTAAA, linkages ssssszzzzssssszssss (antisense e[5mC]*eT*eT*eG*eG*dT[ms]dG[ms]dA[ms]dA[ms]dT*d[5mC]*dT*dT*dT*dA[ms]eT*eT*eA*eA*eA) [compound 1693049]
# output 93

# input Look up and state reported APOE RNA (% control) Cortex for 1778112 (eA*e[5mC]eTeTeGkG*dT*dG[ms]dA[ms]dA*dT*d[5mC]*dT*dT*dT*dA[ms]eTeT*eA*eA; antisense) [Compound 1778112]
# output 63

# input Give a short answer stating reported APOE RNA (% control) Cortex for 1693064: 5-10-5 MOE gapmer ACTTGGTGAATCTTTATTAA, linkages soossssszzsssssosss (antisense eA*e[5mC]eTeT*eG*dG*dT*dG*dA[ms]dA[ms]dT*d[5mC]*dT*dT*dT*eAeT*eT*eA*eA) [compound 1693064] .
# output 83

# input Input 1693052: 5-10-5 MOE gapmer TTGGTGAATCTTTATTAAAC, linkages sossszzzsssssssosss (antisense eT*eTeG*eG*eT*dG[ms]dA[ms]dA[ms]dT*d[5mC]*dT*dT*dT*dA*dT*eTeA*eA*eA*e[5mC]) [compound 1693052] , output reported APOE RNA (% control) Cortex.
# output 91

# input Give reported APOE RNA (% control) Cortex value for 1693072: 5-10-5 MOE gapmer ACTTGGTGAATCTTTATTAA, linkages ssssosszzzzzsssssss (eA*e[5mC]*eT*eT*eGdG*dT*dG[ms]dA[ms]dA[ms]dT[ms]d[5mC][ms]dT*dT*dT*eA*eT*eT*eA*eA) [compound 1693072]
# output 82

# input Please list APOE RNA (% control) Cortex recorded for the substance 1693068: 5-10-5 MOE gapmer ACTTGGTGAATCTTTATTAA, linkages sssossszzzszsssssss (antisense eA*e[5mC]*eT*eTeG*dG*dT*dG[ms]dA[ms]dA[ms]dT*d[5mC][ms]dT*dT*dT*eA*eT*eT*eA*eA) [compound 1693068]
# output 86

----------
Provide the reported APOE RNA (% control) Cortex of each item.
Tested on: human APOE RNA
Assay: Activity in APOE C57BL/6NTac-Apoeem7250 knock-in mice, single ICV bolus, 20 weeks (Example 13)
Assay type: in vivo
Conditions: cortex; single ICV bolus 300 μg; 20 weeks post treatment; normalized to mouse Ppia
Strand notation (5' to 3'): a small letter for the sugar, then the base; units joined by * are phosphorothioate-linked, units joined directly phosphodiester-linked; [ ] holds rarer units or linkages, { } end groups; capitals alone tell only the bases. [ms] = mesyl phosphoramidate linkage; e = 2'-O-(2-methoxyethyl) (MOE); k = constrained ethyl (cEt); [5mC] = 5-methylcytosine; d = 2'-deoxy (DNA)
State the answer as a number, implicitly in % control.

# input Determine its reported APOE RNA (% control) Cortex: 1757551: mixed MOE/cEt gapmer TTGGTGAATCTTTATTAA, sugar eeekkddddddddeeeee, linkages soossssssssssooss (eT*eTeGkG*kT*dG*dA*dA*dT*d[5mC]*dT*dT*dT*eAeTeT*eA*eA) [compound 1757551]
# output 93

# input Complete the entry with APOE RNA (% control) Cortex for 1757563: mixed MOE/cEt gapmer TTGGTGAATCTTTATTAA, sugar eeeekddddddddkekee, linkages soossssssssssooss (eT*eTeGeG*kT*dG*dA*dA*dT*d[5mC]*dT*dT*dT*kAeTkT*eA*eA) [compound 1757563]
# output 93

# input Look up and report measured APOE RNA (% control) Cortex for this entry: 1778130: modified oligonucleotide complementary to human APOE RNA (eA*e[5mC]eTeTeG*kG*dT*dG[ms]dA[ms]dA*dT*d[5mC]*dT*dT*dT*dA[ms]kTkT*eA*eA; antisense) [compound 1778130]
# output 48

# input Please report the measured APOE RNA (% control) Cortex for 1757554: mixed MOE/cEt gapmer TTGGTGAATCTTTATTAA, sugar kkeeeddddddddeeeee, linkages soossssssssssooss (kT*kTeGeG*eT*dG*dA*dA*dT*d[5mC]*dT*dT*dT*eAeTeT*eA*eA) [compound 1757554]
# output 95
